Data credit: patent US4927826A

# Test system: dog platelets
# assayNotes: Binding assay: inhibition of 3H-PAF binding to dog platelets
# conditionNotes: 10 minutes at room temperature
measuredQuantity: IC50 (nM)

molecule	readoutValue
O=C(/C=C/[C@H]1CC1(c1ccccc1)c1ccccc1)NCCCCc1cccnc1	250
C[C@H](CCCc1cccnc1)NC(=O)/C=C/[C@@H]1CC1(c1ccc(F)cc1)c1ccc(F)cc1 (relative stereo)	450
O=C(/C=C/[C@@H]1CC1(c1cccc(F)c1)c1cccc(F)c1)NCCCCc1cccnc1	24

[1] O=C(/C=C\[C@H]1CC1(c1ccccc1)c1ccccc1)NCCCCc1cccnc1
[2] CC1(/C=C/C(=O)NCCCCc2cccnc2)CC1(c1ccc(F)cc1)c1ccc(F)cc1 (racemic)
Qu. // compare: 1 vs 2 , metric IC50, want the smaller Your answer should be the label of the entry you select.
Ans. 1
(1: 100 nM, 2: 300 nM)

[P] O=C(/C=C\C1CC1(c1ccccc1)c1ccccc1)NCCCCc1cccnc1 (racemic)
[Q] O=C(/C=C/C1CC1(c1cccc(F)c1)c1cccc(F)c1)NCCCCc1cccnc1 (racemic)
Qu. // compare: P vs Q , metric IC50, want the smaller Your answer should be the label of the entry you select.
Ans. Q
(Q: 53 nM, P: 650 nM)

[a] O=C(/C=C/[C@H]1CC1(c1cccc(F)c1)c1cccc(F)c1)NCCCCc1cccnc1
[b] COc1cccc([C@]2(c3ccccc3)C[C@@H]2/C=C\C(=O)NCCCCc2cccnc2)c1 (relative stereo)
Qu. // compare: a vs b , metric IC50, want the smaller Your answer should be the label of the entry you select.
Ans. a

###

# System: dog platelets
# assayNotes: Binding assay: inhibition of 3H-PAF binding to dog platelets
# conditionNotes: 10 minutes at room temperature
measuredQuantity: IC50 (nM)

compound	unitAbbreviation	IC50
O=C(/C=C/[C@@H]1CC1(c1ccccc1)c1ccccc1)NCCCCc1cccnc1	nM	35
O=C(/C=C/C1CC1(c1cccc(C(F)(F)F)c1)c1cccc(C(F)(F)F)c1)NCCCCc1cccnc1 (racemic)	nM	350

[I] COc1cccc(C2(c3cccc(OC)c3)CC2/C=C/C(=O)NCCCCc2cccnc2)c1 (racemic)
[II] COc1cccc(C2(c3cccc(OC)c3)C[C@H]2/C=C/C(=O)NCCCCc2cccnc2)c1
[III] O=C(CCC1CC1(c1ccccc1)c1ccccc1)NCCCCc1cccnc1 (racemic)
[IV] O=C(/C=C/C1CC1(c1ccccc1)c1ccccc1)NCCCCc1cccnc1 (racemic)
Qu. # ascending order, key=IC50 Answer with the labels in sequence, matching the requested order.
Ans. II, I, IV, III

###

# Tested on: dog platelets
# assayNotes: Binding assay: inhibition of 3H-PAF binding to dog platelets
# conditionNotes: 10 minutes at room temperature
pIC50: −log10 of the molar value.
measuredQuantity: pIC50

Consider the worked cases shown below.
molecule	measuredQuantity	readoutValue
O=C(/C=C\C1CC1(c1ccc(F)cc1)c1ccc(F)cc1)NCCCCc1cccnc1 (racemic)	pIC50	6.00
O=C(CC[C@H]1CC1(c1ccccc1)c1ccccc1)NCCCCc1cccnc1	pIC50	6.70
C[C@H](CCCc1cccnc1)NC(=O)/C=C/[C@@H]1CC1(c1cccc(F)c1)c1cccc(F)c1 (relative stereo)	pIC50	6.89

[1] COc1cccc(C2(c3cccc(OC)c3)CC2/C=C/C(=O)NC(C)CCCc2cccnc2)c1 (stereo in doubt)
[2] COc1cccc([C@@]2(c3ccccc3)C[C@@H]2/C=C\C(=O)NCCCCc2cccnc2)c1 (relative stereo)
[3] COc1cccc([C@@]2(c3ccccc3)C[C@@H]2/C=C/C(=O)NCCCCc2cccnc2)c1 (relative stereo)
[4] O=C(/C=C\C1CC1(c1cccc(F)c1)c1cccc(F)c1)NCCCCc1cccnc1 (racemic)
[5] O=C(/C=C\[C@@H]1CC1(c1ccccc1)c1ccccc1)NCCCCc1cccnc1
Qu. # ascending order, key=pIC50 Answer with the labels in sequence, matching the requested order.
Ans. 5, 1, 2, 4, 3
(5: 6.00, 1: 6.35, 2: 6.60, 4: 7.00, 3: 7.46)
